// endpoint Kd / system OASS-A (Salmonella typhimurium)

CC(C)CC(NC=C1C(=O)OC(C)(C)OC1=O)C(=O)O (stereo not drawn) [Compound 12]	> 1.5 mM
Cn1nnnc1Sc1ncccc1C(=O)O [Compound 14]	> 1.5 mM

The record that follows has no Kd shown yet.
Find Kd (OASS-A (Salmonella typhimurium)) for the entry O=C(O)c1ccoc1CN1CCOCC1 [Compound 11]
> 1.5 mM

====

# Kd per record follows
- TEST TARGET: OASS-B (Salmonella typhimurium, UniProt P29848)
- Sequence (P29848 whole entry): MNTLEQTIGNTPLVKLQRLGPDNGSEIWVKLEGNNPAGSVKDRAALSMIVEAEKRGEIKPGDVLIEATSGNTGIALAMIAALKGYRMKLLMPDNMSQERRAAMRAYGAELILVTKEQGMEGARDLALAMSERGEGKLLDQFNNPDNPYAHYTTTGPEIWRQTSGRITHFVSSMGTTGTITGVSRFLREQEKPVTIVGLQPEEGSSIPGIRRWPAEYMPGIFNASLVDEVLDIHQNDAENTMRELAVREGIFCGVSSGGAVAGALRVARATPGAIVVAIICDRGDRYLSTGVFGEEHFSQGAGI

// solved cases for Kd follow
CC(C)C(NS(=O)(=O)c1cccs1)C(=O)O (stereo not drawn)	> 1500 µM
O=C(O)C1CC=CCC1C(=O)Nc1nncs1 (stereo not drawn)	> 1500 µM

We now examine a further compound.
What reported Kd corresponds to CC1(C)OC(=O)C(=CNC(CCC(=O)O)C(=O)O)C(=O)O1 (stereo not drawn) on OASS-B (Salmonella typhimurium, UniProt P29848)?
> 1500 µM

Just for reference, paper PMC3805590 is where these values come from.
